Could you please report measured pIC50 for the items listed next?
Tested on: CHO
Experiment: Cytotoxicity against CHO cells by MTT assay
Assay type: cell-based
Conditions: Cricetulus griseus
Give only the number. pIC50 is defined as minus log10 of concentration in molar units.

What does the data say about its pIC50? Entry: `CN(C)CCCNc1nc2cc(Nc3ccnc4cc(Cl)ccc34)ccc2o1` 4.90

What does the data say about its pIC50? Entry: `CCN(CC)Cc1cc(Nc2ccnc3cc(Cl)ccc23)ccc1O` 3.83

What does the data say about its pIC50? Entry: `CC[C@H]1CN2CCc3cc(OC)c(OC)cc3[C@@H]2C[C@@H]1C[C@H]1NCCc2cc(OC)c(OC)cc21` 6.98

What does the data say about its pIC50? Entry: `Clc1ccc2c(Nc3ccc4oc(NCCN5CCCC5)nc4c3)ccnc2c1` 5.31

What does the data say about its pIC50? Entry: `Clc1ccc2c(Nc3ccc4oc(NCCN5CCOCC5)nc4c3)ccnc2c1` 3.91

What does the data say about its pIC50? Entry: `Clc1ccc2c(Nc3ccc4oc(NCCN5CCCCC5)nc4c3)ccnc2c1` 5.12

What does the data say about its pIC50? Entry: `Clc1ccc2c(Nc3ccc4oc(NCCCN5CCCCC5)nc4c3)ccnc2c1` 4.98

What does the data say about its pIC50? Entry: `CN(C)CCNc1nc2cc(Nc3ccnc4cc(Cl)ccc34)ccc2o1` 5.12

====

Assay: Metabolic stability in BALB/c mouse liver microsomes assessed as compound remaining at […] after 30 mins by HPLC-MS/MS analysis in presence of NADPH
Format: ADME
Details: read-out: Stability
Exam item: assign Yes to entries whose remaining at 0.5 h is below 40% and No to entries at or above 40%. Note that a value of exactly 40% receives No.

Lab note: confirm whether the reported remaining at 0.5 h for this compound is below 40%, equality not counting. compound: `CN(C)CCCNc1nc2cc(Nc3ccnc4cc(Cl)ccc34)ccc2o1` No

Lab note: confirm whether the reported remaining at 0.5 h for this compound is below 40%, equality not counting. compound: `CN(C)CCNc1nc2cc(Nc3ccnc4cc(Cl)ccc34)ccc2o1` No

Lab note: confirm whether the reported remaining at 0.5 h for this compound is below 40%, equality not counting. compound: `Clc1ccc2c(Nc3ccc4oc(NCCN5CCCC5)nc4c3)ccnc2c1` No

Lab note: confirm whether the reported remaining at 0.5 h for this compound is below 40%, equality not counting. compound: `CN1CCN(c2nc3cc(Nc4ccnc5cc(Cl)ccc45)ccc3o2)CC1` Yes

Lab note: confirm whether the reported remaining at 0.5 h for this compound is below 40%, equality not counting. compound: `CCNc1nc2cc(Nc3ccnc4cc(Cl)ccc34)ccc2o1` Yes

Lab note: confirm whether the reported remaining at 0.5 h for this compound is below 40%, equality not counting. compound: `Clc1ccc2c(Nc3ccc4oc(NCCCN5CCOCC5)nc4c3)ccnc2c1` Yes

Lab note: confirm whether the reported remaining at 0.5 h for this compound is below 40%, equality not counting. compound: `Clc1cccc(N2CCN(c3nc4cc(Nc5ccnc6cc(Cl)ccc56)ccc4o3)CC2)c1` No

Lab note: confirm whether the reported remaining at 0.5 h for this compound is below 40%, equality not counting. compound: `Clc1ccc2c(Nc3ccc4oc(NCCCN5CCCCC5)nc4c3)ccnc2c1` No

Lab note: confirm whether the reported remaining at 0.5 h for this compound is below 40%, equality not counting. compound: `CCN(CC)CCCNc1nc2cc(Nc3ccnc4cc(Cl)ccc34)ccc2o1` No

Lab note: confirm whether the reported remaining at 0.5 h for this compound is below 40%, equality not counting. compound: `CCN(CC)CCNc1nc2cc(Nc3ccnc4cc(Cl)ccc34)ccc2o1` No

====

Experiment: Volume of distribution in C57Bl/6 mouse at 5 mg/kg, iv
Format: ADME, organism-based
Conditions: in vivo
READOUT TYPE: Vd (L/kg)
# output: bare number, implied unit L/kg

What does the data say about its Vd? Entry: `Clc1ccc2c(Nc3ccc4oc(NCCCN5CCCCC5)nc4c3)ccnc2c1` 24.5

====

Tested on: CHO
Test: Cytotoxicity against CHO cells by MTT assay
Format: cell-based
Conditions: Cricetulus griseus
READOUT TYPE: log10 IC50 (log10 of the value in µM)
Recall that a logarithmic scale is used here: each number is log10 of IC50 in µM.

What does the data say about its log10 IC50? Entry: `O=C1CCCN1CCCNc1nc2cc(Nc3ccnc4cc(Cl)ccc34)ccc2o1` 1.47

What does the data say about its log10 IC50? Entry: `CCN(CC)CCNc1nc2cc(Nc3ccnc4cc(Cl)ccc34)ccc2o1` 1.06

What does the data say about its log10 IC50? Entry: `CN1CCN(Nc2nc3cc(Nc4ccnc5cc(Cl)ccc45)ccc3o2)CC1` 2.09

What does the data say about its log10 IC50? Entry: `Clc1ccc2c(Nc3ccc4oc(NCc5cccnc5)nc4c3)ccnc2c1` 2.21

What does the data say about its log10 IC50? Entry: `Clc1cccc(N2CCN(c3nc4cc(Nc5ccnc6cc(Cl)ccc56)ccc4o3)CC2)c1` 2.24

What does the data say about its log10 IC50? Entry: `CCN(CC)CCCNc1nc2cc(Nc3ccnc4cc(Cl)ccc34)ccc2o1` 0.80

====

Test system: Plasmodium berghei
Assay: Antimalarial activity against GFP-transfected Plasmodium berghei ANKA infected in mouse assessed as reduction in parasitemia at 10 mg/kg, po qd administered for 4 days measured on day 4 post last dose by flow cytometric analysis relative to control
Format: functional
Parameters: scale not given: the % may be the effect or the level left
READOUT TYPE: Activity

What does the data say about its Activity? Entry: `CCN(CC)Cc1cc(Nc2ccnc3cc(Cl)ccc23)ccc1O` 100%

What does the data say about its Activity? Entry: CCN(CC)CCCC(C)Nc1ccnc2cc(Cl)ccc12 (stereo not given) 99.9%

What does the data say about its Activity? Entry: `CN(C)CCNc1nc2cc(Nc3ccnc4cc(Cl)ccc34)ccc2o1` 99.9%

What does the data say about its Activity? Entry: `Clc1ccc2c(Nc3ccc4oc(NCCN5CCCC5)nc4c3)ccnc2c1` 99.8%

What does the data say about its Activity? Entry: `Clc1ccc2c(Nc3ccc4oc(NCCCN5CCCCC5)nc4c3)ccnc2c1` 99.8%

====

Could you please report measured logP for the items listed next?
Assay: Lipophilicity, log P of the compound
Format: physicochemical
Settings: octanol/water

What does the data say about its logP? Entry: `Clc1ccc2c(Nc3ccc4oc(NCCN5CCCCC5)nc4c3)ccnc2c1` 4.11

What does the data say about its logP? Entry: `Clc1cccc(CNc2nc3cc(Nc4ccnc5cc(Cl)ccc45)ccc3o2)c1` 5.7

What does the data say about its logP? Entry: `O=C1CCCN1CCCNc1nc2cc(Nc3ccnc4cc(Cl)ccc34)ccc2o1` 2.88

What does the data say about its logP? Entry: `Clc1ccc2c(Nc3ccc4oc(NCCCN5CCCCC5)nc4c3)ccnc2c1` 4.16

What does the data say about its logP? Entry: `Clc1ccc2c(Nc3ccc4oc(NCc5ccncc5)nc4c3)ccnc2c1` 4.55

What does the data say about its logP? Entry: `COCCc1nc2cc(Nc3ccnc4cc(Cl)ccc34)ccc2o1` 3.11

What does the data say about its logP? Entry: `CN1CCN(c2nc3cc(Nc4ccnc5cc(Cl)ccc45)ccc3o2)CC1` 3.9

What does the data say about its logP? Entry: `CCN(CC)c1nc2cc(Nc3ccnc4cc(Cl)ccc34)ccc2o1` 4.78

====

Experiment: Tmax in C57Bl/6 mouse at 20 mg/kg, po
Format: ADME, organism-based
Settings: in vivo
READOUT TYPE: Tmax (h)
# output: bare number, implied unit h

What does the data say about its Tmax? Entry: `Clc1ccc2c(Nc3ccc4oc(NCCCN5CCCCC5)nc4c3)ccnc2c1` 2.9

====

Test: Metabolic stability in human liver microsomes assessed as compound remaining at […] after 30 mins by HPLC-MS/MS analysis in presence of NADPH
Assay type: ADME
Details: read-out: Stability
Could you please report measured remaining at 0.5 h for the items listed next?
# output: bare number, implied unit %

What does the data say about its remaining at 0.5 h? Entry: `CN1CCN(c2nc3cc(Nc4ccnc5cc(Cl)ccc45)ccc3o2)CC1` 61

What does the data say about its remaining at 0.5 h? Entry: `Clc1ccc2c(Nc3ccc4oc(NCCN5CCCC5)nc4c3)ccnc2c1` 62

What does the data say about its remaining at 0.5 h? Entry: `Clc1ccc2c(Nc3ccc4oc(NCCCN5CCCCC5)nc4c3)ccnc2c1` 70

What does the data say about its remaining at 0.5 h? Entry: `CCNc1nc2cc(Nc3ccnc4cc(Cl)ccc34)ccc2o1` 81

What does the data say about its remaining at 0.5 h? Entry: `CCN(CC)CCNc1nc2cc(Nc3ccnc4cc(Cl)ccc34)ccc2o1` 78

What does the data say about its remaining at 0.5 h? Entry: `Clc1ccc2c(Nc3ccc4oc(NCCCN5CCOCC5)nc4c3)ccnc2c1` 27

What does the data say about its remaining at 0.5 h? Entry: `Clc1cccc(N2CCN(c3nc4cc(Nc5ccnc6cc(Cl)ccc56)ccc4o3)CC2)c1` 36

What does the data say about its remaining at 0.5 h? Entry: `CCN(CC)CCCNc1nc2cc(Nc3ccnc4cc(Cl)ccc34)ccc2o1` 70

What does the data say about its remaining at 0.5 h? Entry: `CN(C)CCCNc1nc2cc(Nc3ccnc4cc(Cl)ccc34)ccc2o1` 78

What does the data say about its remaining at 0.5 h? Entry: `Clc1ccc2c(Nc3ccc4oc(NCCN5CCCCC5)nc4c3)ccnc2c1` 71
